System: HL-60(TB) leukemia
assay protocol: NCI-60 one-dose screen, 48 h (100 = growth as untreated, 0 = no growth, -100 = all killed)
details: 10 µM unless noted
This is part of a sample that, as a whole, favours compounds with a hit. Of some 83,000 tested, about 20% had one in any assay.
Threshold rule: growth greater than or equal to 40% is Yes; below that, No.

| molecule | classification |
| --- | --- |
| COc1cccc(-c2nn(-c3ccccc3)cc2-c2ccnc(NCCCO)c2)c1 | No |
| Cc1[nH]c(N=Nc2ccccc2)nc1N=Nc1ccccc1 | No |
| Oc1ccccc1C=NCC1CCC(CN=Cc2ccccc2O)CC1 (stereo unspecified) | Yes |
| Cc1ccc(O)c(N2C(=NCc3ccco3)NS(=O)(=O)c3cnccc32)c1 | Yes |

API: the following record is the query input.
Ask | Is reported growth greater than or equal to 40% here: Cc1c(O)cc(-c2cnc(N/N=C\c3ccc(Cl)cc3)s2)c(O)c1C
Reply | No

----------
Test system: HL-60(TB) leukemia
assay protocol: NCI-60 one-dose screen, 48 h (100 = growth as untreated, 0 = no growth, -100 = all killed)
details: 10 µM unless noted
Compounds without any hit were thinned out: in the full panel of roughly 83,000, 20% have a hit.
Ranges used to classify growth: bin 0 (below 10%), bin 1 (10% to below 90%), bin 2 (90% or more)

Take a look at these entries with their results.
| molecule | classification |
| --- | --- |
| OC(CCN1CCCC1)(c1ccccc1)C1CCCCC1 (stereo not drawn) | bin 2 |
| CCCCC(CCCC)(S(=O)(=O)CC)S(=O)(=O)CC | bin 2 |

Ask | Which class is correct for the following molecule? NNC(=O)CCCCl
Reply | bin 2

Ask | Which class holds NS(=O)(=O)c1ccc(N2CC(c3nc4ccccc4[nH]3)CC2=O)cc1 (stereo not drawn) ?
Reply | bin 2

Ask | Band for the recorded growth of COC(=O)C1OC1c1cc([N+](=O)[O-])ccc1OC (stereo not drawn) ?
Reply | bin 2

Ask | Looking at CN(C)c1ccc(N=Nc2cccc3ccccc23)cc1 , which class would you pick?
Reply | bin 1

Ask | Hi, small favor: classify Oc1ccccc1/C=N/c1ccccn1 by its growth when you get a moment.
Reply | bin 2

Ask | Which class holds COC(=O)Nc1nc2ccc(C(=O)C3CC3)cc2[nH]1 ?
Reply | bin 0

----------
System: HL-60(TB) leukemia
assay protocol: NCI-60 one-dose screen, 48 h (100 = growth as untreated, 0 = no growth, -100 = all killed)
details: 10 µM unless noted
About 83,000 compounds went through this panel and 20% of them were active in at least one assay; those are over-represented in the sample as a whole.
metric name: growth (%)
Numbers only here, please. The scale is %.

Examples with their reported growth follow.
| smiles data | metric name | endpoint value |
| --- | --- | --- |
| Cc1ccc(S(=O)(=O)/C(=C\c2ccc(Cl)cc2)C(=O)c2ccccc2)cc1 | growth | 97.1 |
| O=c1oc2cc(OS(=O)(=O)c3ccccc3)ccc2c2c1CCCCC2 | growth | 18.6 |
| O=C1/C(=C\c2ccc([N+](=O)[O-])cc2)CS(=O)(=O)C/C1=C/c1ccc([N+](=O)[O-])cc1 | growth | -38.4 |
| COc1ccc(-c2cc(C(=O)N=Nc3c(O)[nH]c4ccc(Br)cc34)no2)cc1 | growth | 95.1 |
| O=C(Nc1cccc(-n2cc(-c3ccncc3)c(-c3cc(O)cc(Cl)c3)n2)c1)Nc1ccc(Cl)c(Cl)c1 | growth | -23.4 |

Ask | Can you share its growth? I mean this molecule: O=c1[nH]c(N2CCC(Cc3ccccc3)CC2)nc2sc3c(c12)CCCC3
Reply | 95.7

Ask | Which value of growth has been reported for CNCc1cccc2c1OCCOCCOCCNS(=O)(=O)c1ccc(cc1)-c1cnc(N)c(n1)C(=O)N2 in the records?
Reply | -10.8

Ask | // growth lookup, key: N=C(c1ccccc1)N(Cc1ccccc1)Cc1ccccc1
Reply | 82.6

Ask | Given the entry Cc1ccc(N(CC(=O)Nc2ccc(S(=O)(=O)N3CCC(N4CCCC4)CC3)cc2)S(=O)(=O)c2ccc(Cl)cc2)cc1 , report its measured growth.
Reply | -51.5
